Items are presented alongside their recorded folding stability dG unfold.
Assay: folding stability dG unfold (combined trypsin and chymotrypsin); higher = more stable
RECORDED_ENDPOINT: folding stability dG unfold (kcal/mol)

INSERT INTO assay_data (record_sequence, result_comparator, value_observed) VALUES
  ('SAAEPPPVYLVRITVKVPPGVKPLPPGAVVTYDPATGTLTVYVLMTADEIDALAAAPGVEITDIEVIKLDSA [r9_827_TrROS_Hall]', '=', 4.59),
  ('SAGGSAGGITLVVEGMPAEQMEEMKQKIREFAEDYNVEVNIDQERNPDGRMRATVEIEPPPGDPSAGGSAGG [r6_907_TrROS]', '=', -0.767),
  ('SAGGMLPLVVKVKTPDGEEYTFVVAYNPETSELWLPLPKEPTWRNVPLTEASSIPEFQIVEARPLALESAGG [r13_994_TrMRF]', '=', 0.761),
  ('SAGEEKEAKALAEQYAAEFAPKLGMKYEVPEVKVEKDEKTGKITVTVTVKFTFPEPRTVTKKFTIVVPKSAG [r5_381_JUSTAS]', '=', 2.14),
  ('SAGGSAGGSMTVTYTEVGDQLVVTTPDGRRYVITLSGDVTYDPATGTVTVPPGETMTPVPVPASAGGSAGGS [r20_158_JUSTAS]', '=', 1.99),
  ('SAGGSAGGSAAPVVREIEIDLPYPDGSPLTVEKVTEEPAPGTVHYEIKLPDGTVITRTVPTFSAGGSAGGSA [r18_370_JUSTAS]', '=', -0.797),
  ('SAGGLLVADEAGVPLSPVPPVPPIPVQVTFPDGTKVTIEYYPGLNEVKVEYEGDDPAKVAEIVKEILKSAGG [r13_701_JUSTAS]', '=', 0.443),
  ('SAGGSAEEAEELARRLAAELQAETGLEVTVEVRYDEETDTVVIRMTVRDRATGEERTLELTLRLPDSAGGSA [r15_464_TrROS_Hall]', '=', 3.51),
  ('SVTVDEIAEWFANSFQQHGMKDVKVDVTVEPDPKNGRVRVDVQIRMTYPNPDGEKHRFEMTIPVEIPPNDSA [r9_440_TrROS]', '=', 1.99),
  ('SAGGSAGGSAKKVKIEEKDGELTITVEPGEKVLIVYPDGTVEEVEVKEGDTITLPPGAKVLPSAGGSAGGSA [r18_452_TrROS_Hall]', '=', 1.33),
  ('SAGGSAGGIKEILKEARENPENAESVTIRIPMEVPVTRYDPDNGEPETHPHPVPGEITIPPDDLSAGGSAGG [r6_560_TrROS]', '=', 0.889),
  ('SAGGSAGGSAGTRTINMPNPHQARELIKEQPPGKPITIHMPNPEWAKELADAPGVPIQMHSAGGSAGGSAGG [r11_1071_TrROS]', '<', -1),
  ('DMDFKVEDIKVDPDDGKVKIEMPIPNPNMPIAIFAPNGKIKDVKWEHYKEDGRMKIEIPVKSPDEVRAFIFS [r1_138_TrROS]', '<', -1),
  ('SAGGSAGPDPKNKKIKVKVETFYLEDFGLKVEKIYIEGTGKPLLVFYFPDGSKLIINEDGTVKLIESAGGSA [r15_617_TrMRF]', '=', 2.89),
  ('SAGGGMGSSMKAKVEEEIPELKAADSTKVEITVTVTETRSFALPGGELATTTTTTTKTLEVEVPEEESAGGS [r8_203_JUSTAS]', '=', -0.217),
  ('SAGGSGSTTPETRTEPSPGGTTTEVRTDVHTLPDAETVEITVTRGGRTITLTASPAEAATLRVTPGASAGGS [r8_257_JUSTAS]', '=', -0.436),
  ('SAKTVTLKVTLEIEINGVRVKVEATLTLELDENGELKLTLELKIEIEPAPPPKEVKLTEEEKKKLEELKSAG [r14_442_TrROS_Hall]', '=', 3.25),
  ('SKIEIEVFPEEGFIRIRLEAENLTEEELKDAIIEFIKSLGFPAEVEILRIEPSGNTIRIEALVKVEPGYLSA [r9_347_TrMRF]', '=', 2.97),
  ('SAGGSAGGSAGGYDPNDKPVVEVPIELPPNDKKNPDRMKENAEEIANPLQEKGKPDRIVSAGGSAGGSAGGS [r10_723_TrROS]', '=', 0.475),
  ('SASPRTITVPVTRFPDGTVRFTIETPDKTITLTFPPSATFEEALEKLSPDPDKKITLVEKDPTTVTVAESAG [r14_404_JUSTAS]', '=', 0.873),
  ('SAGGSAGGSNGNYRIKIKIRKPNGEPKSQHTFNIPSPEQIKESLAQQPGFPPDRIEDVEVGPYSAGGSAGGS [r12_182_TrROS]', '<', -1),
  ('SAGGSAGGSAGKIRDPNGNPFQIKDVEVEPPGPGDPYISIEYPDNGEEFTLPPEDAEDLFSAGGSAGGSAGG [r17_517_TrROS]', '=', 1.64),
  ('SAKTLTIEELAKKLKEELEKKTGKKLSKEELKKKALELAKKLAEEKGLKIKSVKVEEKDGKLTVTVEVESAG [r14_147_TrROS_Hall]', '=', 2.84),
  ('SAGGKGKAVPFEIEFEAPGGKKVKAKITRIDLPDKPIYRVEVEVDGKKITYTATEDEAANLTFTPGGSAGGS [r8_257_TrMRF]', '=', 1.92),
  ('SAGGSASVVLPNATVEELKEAVEKGAKEIVVVSPDPARAATIKAEIEKLHDTPVKVLTPEEAAALESAGGSA [r15_243_JUSTAS]', '=', 0.907),
  ('SAGGSAGGSAGWLMIMFPIPPNADNVRIKWPDGPTQEHEMEPGSPVMIMIPPGNIKIEVDSAGGSAGGSAGG [r11_52_TrROS]', '=', 1.21),
  ('SAGGSAMVLVRIKLKHPEREEVIEVPAGELLEILEHPELNEHWEIVEIEAREVPPEFVEPEELEEESAGGSA [r15_460_TrMRF]', '=', 0.888);

====

Item-by-item account of folding stability dG unfold
Assay: folding stability dG unfold (combined trypsin and chymotrypsin); higher = more stable
RECORDED_ENDPOINT: folding stability dG unfold (kcal/mol)

INSERT INTO assay_data (record_sequence, result_comparator, value_observed) VALUES
  ('SAMTLTVPPSLSATDAAGNAIPPSLSIEVEKVTPLPETGKVVAEVKITDPETGETTTRPLTITLPPGEASAG [r14_258_JUSTAS]', '=', 0.506),
  ('SAGGSAGGSEDKYIIRVEVLLPNKKRTYVLEEPEKGIEAFKKRLEKEYPDEPIVEVRIEVLPASAGGSAGGS [r12_429_TrMRF]', '=', 1.19),
  ('SAGGSAGGSAKHDVKIDDVERMPNPYRFTITFPGNGKPIPIPFRPNMSIDEMKKEAKELAKSAGGSAGGSAG [r3_142_TrROS]', '<', -1),
  ('SAGGMKTIEITIKTEDGYTIKIKITEKDGKLYIEIEIEDPNMSEEQREKIKKEIEELAKKLNIKVEIPSAGG [r13_774_TrROS_Hall]', '=', 3.14),
  ('SAGGSAGGSAGPTTSSRTVKPGEVEEVKEAIEAQGVSVTVTLDPSTGTYTVGVTNPGVLGSAGGSAGGSAGG [r11_1043_JUSTAS]', '<', -1),
  ('SAMTVELTLPSEELVEKIKELLPSYVKIEKVEVDEETKTVTVTVSFDPNLSPEEQQAVVEKIKKLIEEKSAG [r14_306_JUSTAS]', '=', 3.4),
  ('SAGGSAGGSMRTLKARITLRGPDGVEYRFEFEIPAGSAEDVVAFLKNLPVPPGWEVELEVLDESAGGSAGGS [r20_162_TrMRF]', '=', 5.44);

====

Experiment: folding stability dG unfold from chymotrypsin proteolysis; higher = more stable
Recorded folding stability dG unfold, one value per entry.
RECORDED_ENDPOINT: folding stability dG unfold (kcal/mol)

INSERT INTO results (record_sequence, value_observed) VALUES
  ('SAGGSAMTIYIKNKDGYIIKIEITKIEEIGPNYIKIKMKMEIINKNGEKKEIELELIFKVKNPEELSAGGSA [r15_1035_TrROS_Hall]', 4),
  ('SAGGSAGGVVVVAKFPTREAVFVAPESLTPEQFAEALRRELGNPDAPLVDLEVRRVTPEELLAASAGGSAGG [r6_120_TrMRF]', 1.05),
  ('MKTITITVTDAPPGTVTIRVEIEREDGSTIEIEKEITVKPGDTITITLKEDEPYKIKKIEIYHNGKKIEITS [r1_70_TrROS_Hall]', 3.81),
  ('SAGGIPPNDPEYQQKMQLLKEIQNFAKEQQQNGRDVKIETIEINPEDGRVTITVQYPNGKKVTITIPSAGGS [r8_277_TrROS]', 1.56),
  ('SAGGLDPDGKIRWQPITITIEIPIPPGDEELANKIADWLRDLGIEVEIKRNPNGYIQITVEFWVLVIDSAGG [r13_702_TrROS]', 5.03),
  ('SAGGSAMVVIRTTKPGGKVEVLAVNPEDGSKTVKTFSSSTSPKEVFEEVNKEFGGEVKVEKVELKASAGGSA [r15_544_TrMRF]', -0.912),
  ('SMLVLRLPDNRLAVLEYDPETKRLRVLVVDPESGRLTVAEIHPETGEITVDEYTLLPNGEPLPHRFELPLSA [r9_1073_TrMRF]', 2.54),
  ('SAGGMPDITEVELLDVEYDPETGTYRFRVKVKLKDGTEREVEIPFVDEDGDFGIEEILKAAEELVEESAGGS [r16_221_TrMRF]', 4),
  ('SAGGSAGGSAGGIKKGDKIKIVKVKVEKRYDKDGKLVEERIVSIEEEEIEVPSLEDLLKASAGGSAGGSAGG [r7_439_TrROS_Hall]', 0.739),
  ('SAGGSAGLTLTFGDKEITLTPNPDTDTFTGTYPDGKPFTFKLTDDELYITYPDGTKEKIPLKDIKNSAGGSA [r15_448_TrMRF]', 1.42),
  ('SAGGSAGGSGGMTPTSRDYVLPNGEKLAVEETFTFPDGSSVTKVLDPKTGTTTTLPASTIASASAGGSAGGS [r12_488_JUSTAS]', 0.321),
  ('SAGGSDVEIEVFENAIIITIPLDLDNGKGETVEVRIIAPFTPDGRPIFRIEVINPDSDEVVTFTFPSAGGSA [r2_484_TrMRF]', 2.77),
  ('SAGGSAGGGMNATPKKIKVTITITDPSGNKTTVTREFDSEEEAEKFVKELLPPNRSYTVTYEPESAGGSAGG [r6_290_JUSTAS]', 2.07),
  ('SAGMVEVTVTIIPKKVKDKWVNEAVVSITVPGGPTSTITMPFGSKEEAIKYLKEKGLEVSEENVSVEIESAG [r5_233_JUSTAS]', 3.4),
  ('SAGGSAGGSAGGLPNIPGFVLLETYSETFNVPLPENRTATITKTLILHPNALLESYSINPSAGGSAGGSAGG [r7_945_TrMRF]', -0.353),
  ('SAKVHIPFPPGMPPKQMRNMVKNALREQQNNGKEPDKITIHMPPDQRPIKDWLKEAGLPPDNVKWEPWPSAG [r14_589_TrROS]', -0.422),
  ('SAGGSAGGSADPPRSVLKEERSPDGTTTYKLLEYPGERVLVVTRTPPDGTEEVVLIPEEELSAGGSAGGSAG [r3_167_JUSTAS]', 0.0217),
  ('SAGKKKKFKIVSVEVEVKEVNGKLVIKMKVKDKKTGKTYEITMTLKVVDKKTKKTYTKTLKVTIKLPKSAGG [r19_129_TrROS_Hall]', 4.44),
  ('SAGEKKLTEEEIKKLVEELLKKLKPGEKEKVTLEIELTLEDGRKVKIRITVEVKDGKLVVKIEVEELPSAGG [r19_220_TrROS_Hall]', 3.64),
  ('SAGGSAEVRVVAEPLPDDYLLVLVEFDSPEVLPEALEAIPGVVEVRAYRFLEEGRPRYRVLALVPASAGGSA [r15_344_TrMRF]', 2.02),
  ('SAGGSAGGSAGMKYIEEAKAKAKPDKKLKITIPPSLPVEEVRKELLEEVPIDDVEFIKNLSAGGSAGGSAGG [r11_524_JUSTAS]', -0.491),
  ('SAGGMKVTEEPDATIVEVPLPDRKLTLTITRDGPGVTVTVTEDGEVLKTIPTDGPAEEAIAAAIAALSAGGS [r8_276_JUSTAS]', 1.43),
  ('SMTIEGMSPREAVRNIIEEFIEMFEANGNPPMPIKIRFPGNGKPIYEFPIQSKEQLLDQIENGVPVSIEFSA [r9_718_TrROS]', -0.498),
  ('SAGMKKKITVKVKVKTEEEAEKLAEELEKELGLKVTVEKNEETGVYTITVEVSPEAVEALKKAGVEIESAGG [r19_306_TrROS_Hall]', 1.92),
  ('SMSEVVEESEFNGEKVITIKVTLPDGTPVTVTITLSPEGEGTVTTVPPSSSTSTTTTVPVSQVDEVLEALSA [r9_91_JUSTAS]', 1.4),
  ('SAGGSAGGSASPVPVVEVEITPVKLPGDETAAKITVLLEGDGEPVVVWFDSKDVEKVIEEVLASAGGSAGGS [r20_238_JUSTAS]', 0.847),
  ('SAGGSKYPIEVTDPENGNPVLLEDVESLASVTQEEPGDGRSLYTATVPETGEPVFLTSPEKLAAALSSAGGS [r8_206_JUSTAS]', 0.0753);
